Assign shrunken log2 fold change to each entry below.
Tested on: Escherichia coli TOP10
Test: shrunken log2 fold change of peptide-encoding DNA abundance (4.5 h post-induction vs induction); higher = less antimicrobial activity (less host growth inhibition)
Conditions: time post-induction: 4.5 h; library: site-saturation at positions 5, 18, 19, 20
Give bare numbers.

Here are 2 sequences together with their reported answers.
[
  {
    "SEQUENCE CODE": "RRIRRRPPRLPRPRPRPQCKPRP",
    "SYSTEM NAME": "Escherichia coli TOP10",
    "shrunken log2 fold change": -0.268
  },
  {
    "SEQUENCE CODE": "RRIRPRPPRLPRPRPRPEDWPRP",
    "SYSTEM NAME": "Escherichia coli TOP10",
    "shrunken log2 fold change": 0.391
  }
]

Quick one: give me shrunken log2 fold change for each item below, same order please.
1. RRIRYRPPRLPRPRPRPMHAPRP
2. RRIRGRPPRLPRPRPRPYTWPRP

Response line:
0.495
0.0845

For every record below, what is its shrunken log2 fold change?
1. RRIRDRPPRLPRPRPRPVRSPRP
2. RRIRCRPPRLPRPRPRPVTSPRP
3. RRIRERPPRLPRPRPRPYKHPRP

Response line:
1. 0.155
2. -0.0245
3. -0.684

Prompt line: Short answer please: shrunken log2 fold change, Escherichia coli TOP10, entry RRIRDRPPRLPRPRPRPYADPRP
Response line: -0.155

* * *

System: Escherichia coli TOP10
Assay: shrunken log2 fold change of peptide-encoding DNA abundance (4.5 h post-induction vs induction); higher = less antimicrobial activity (less host growth inhibition)
Settings: time post-induction: 4.5 h; library: site-saturation at positions 5, 18, 19, 20
Give measured shrunken log2 fold change for each item. Keep answers brief.
Answers are plain numbers.

Use these answered entries as a reference point.
[
  {
    "SEQUENCE CODE": "RRIRERPPRLPRPRPRPKRPPRP",
    "OBSERVED RESULT": 0.194
  },
  {
    "SEQUENCE CODE": "RRIRRRPPRLPRPRPRPITMPRP",
    "OBSERVED RESULT": -0.0568
  },
  {
    "SEQUENCE CODE": "RRIRMRPPRLPRPRPRPHTVPRP",
    "OBSERVED RESULT": -0.0708
  }
]

Okay, here is my list. What is shrunken log2 fold change for each of these?
1. RRIRARPPRLPRPRPRPVGLPRP
2. RRIRHRPPRLPRPRPRPWTSPRP
3. RRIRWRPPRLPRPRPRPNHHPRP
4. RRIRVRPPRLPRPRPRPLIRPRP
5. RRIRTRPPRLPRPRPRPKSSPRP

Response line:
1: 0.321; 2: -0.00277; 3: -0.457; 4: -0.352; 5: -0.0371

* * *

Kindly supply the reported shrunken log2 fold change values for the records listed here.
Test system: Escherichia coli TOP10;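 note: peptides expressed intracellularly from a pBAD plasmid library in pooled LB shake-flask culture, induced with 0.3% L-arabinose, DNA abundance read by NGS, three biological replicates, DESeq2 with apeglm shrinkage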
Assay: shrunken log2 fold change of peptide-encoding DNA abundance (4.5 h post-induction vs induction); higher = less antimicrobial activity (less host growth inhibition)
Details: time post-induction: 4.5 h; library: site-saturation at positions 5, 18, 19, 20
One number for each entry.

Example results:
[
  {
    "SEQUENCE CODE": "RRIRPRPPRLPRPRPRPPCCPRP",
    "shrunken log2 fold change": -0.0155
  },
  {
    "SEQUENCE CODE": "RRIRGRPPRLPRPRPRPAKDPRP",
    "shrunken log2 fold change": 1.84
  },
  {
    "SEQUENCE CODE": "RRIRIRPPRLPRPRPRPKPNPRP",
    "shrunken log2 fold change": -0.105
  },
  {
    "SEQUENCE CODE": "RRIRYRPPRLPRPRPRPDVYPRP",
    "shrunken log2 fold change": -0.0212
  },
  {
    "SEQUENCE CODE": "RRIRPRPPRLPRPRPRPISIPRP",
    "shrunken log2 fold change": -0.109
  }
]

# map each sequence to its shrunken log2 fold change
1. RRIRDRPPRLPRPRPRPLVVPRP
2. RRIRARPPRLPRPRPRPGYIPRP

Response line:
1. 0.102
2. -0.383

Your task in this section: give shrunken log2 fold change for each listed record.
1. RRIRKRPPRLPRPRPRPNKLPRP
2. RRIRNRPPRLPRPRPRPNAEPRP
3. RRIRDRPPRLPRPRPRPTPFPRP
4. RRIRDRPPRLPRPRPRPNTDPRP

Response line:
1: -0.0293; 2: 0.388; 3: -0.13; 4: -0.179

Hello, I would appreciate it if you could give shrunken log2 fold change for each entry below.
1. RRIRIRPPRLPRPRPRPGKTPRP
2. RRIRHRPPRLPRPRPRPRMFPRP
3. RRIRRRPPRLPRPRPRPWEIPRP
4. RRIRKRPPRLPRPRPRPEQQPRP
5. RRIRDRPPRLPRPRPRPMILPRP
6. RRIRMRPPRLPRPRPRPNRYPRP
7. RRIRHRPPRLPRPRPRPCFYPRP

Response line:
[-0.126, -0.219, -0.0233, 1.43, -0.111, 0.166, -0.356]

Source: the supplement of paper PMC9112550
